The reported measurements were obtained from paper PMC8911944.

# System: HEK293T-ACE2 cells
# METHOD SUMMARY: Cytotoxicity assay, resazurin method
# Type: cell-based
# EXPERIMENTAL CONTEXT: maximum concentration with cytotoxicity lower than 10%
Property: MNTC (maximum non-toxic concentration); scope: individual molecules
QUANTITY KIND: MNTC (maximum non-toxic concentration) (µg/mL)

MOLECULE: C=C1CC/C=C(\C)CC[C@@H]2[C@@H]1CC2(C)C [β-Caryophyllene]
TARGET OR TEST SYSTEM: HEK293T-ACE2 cells
VALUE REPORTED: 125
//
MOLECULE: CC(O)[C@@H]1NC(=O)c2cccn2C1=O (stereo partly shown) [Macrophominol]
TARGET OR TEST SYSTEM: HEK293T-ACE2 cells
VALUE REPORTED: 36
//
MOLECULE: C/C=C/[C@H]1OC(=O)C=C[C@H]1OC(C)=O [Acetylphomolactone]
TARGET OR TEST SYSTEM: HEK293T-ACE2 cells
VALUE REPORTED: 4.5
//
MOLECULE: CC(=O)OC1C=CC(=O)OC1C1OC1C (stereo not shown) [Asperline]
TARGET OR TEST SYSTEM: HEK293T-ACE2 cells
VALUE REPORTED: 7.81
//
MOLECULE: C=C(C)[C@H]1CC=C(C)CC1 [R-Limonene]
TARGET OR TEST SYSTEM: HEK293T-ACE2 cells
VALUE REPORTED: 31.25
//
MOLECULE: CC1=C[C@H](O)[C@H]2C[C@@H]1C2(C)C (relative stereo) [cis-Verbenol]
TARGET OR TEST SYSTEM: HEK293T-ACE2 cells
VALUE REPORTED: 250
//
MOLECULE: CC(=O)C1COC(O)C1C (stereo not shown) [Botryodiplodin]
TARGET OR TEST SYSTEM: HEK293T-ACE2 cells
VALUE REPORTED: 3
//
MOLECULE: C[C@H]1CC[C@@H](C(C)(C)O)CC2=C1CC[C@@H]2C [Guaiol]
TARGET OR TEST SYSTEM: HEK293T-ACE2 cells
VALUE REPORTED: 33.3
//
MOLECULE: C=C1CC[C@H]2O[C@]2(C)CC[C@@H]2[C@@H]1CC2(C)C [Caryophyllene Oxide]
TARGET OR TEST SYSTEM: HEK293T-ACE2 cells
VALUE REPORTED: 31.25
//
MOLECULE: C=CC(C)(O)CCC=C(C)C (stereo not shown) [Linalool]
TARGET OR TEST SYSTEM: HEK293T-ACE2 cells
VALUE REPORTED: 125
